B1: BEX1 (parent)
chain: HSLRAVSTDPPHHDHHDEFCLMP

# Variants of: B1
# protocolText: protein stability index of a GFP-peptide fusion (GPS, HEK-293T) (PSI 1-6); higher = more stable;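 further: lentivirally expressed fusions sorted by FACS into six bins by GFP to DsRed ratio, PSI derived from sequencing read proportions per bin multiplied by bin number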
# assaySetup: c terminus: native
I'd be grateful if you could share measured protein stability index for these entries.
Response field accepts a number only; no unit should be typed.

Req: Given the variant "A5P" , what is its reported protein stability index?
Resp: 2.3

Req: Record: "D9I"
Resp: 2.76

Req: Record: "H15V"
Resp: 3.14

Req: Record: "A5G"
Resp: 2.44

Req: Record: "H13G"
Resp: 1.73

Req: Record: "P23K"
Resp: 2.9

Req: Record: "D14R"
Resp: 2.48

Req: Record: "V6E"
Resp: 2.26

Req: Record: "S2D"
Resp: 2.45

Req: Record: "S7M"
Resp: 2.65

Req: Record: "S7D"
Resp: 2.26

Req: Record: "H16S"
Resp: 2.61

Req: Record: "A5T"
Resp: 2.67

Req: Record: "M22D"
Resp: 2.11

Req: Record: "P10C"
Resp: 2.09

Req: Record: "D14M"
Resp: 3.39

Req: Record: "R4H"
Resp: 2.76

Req: Record: "R4T"
Resp: 2.84

Req: Record: "C20D"
Resp: 2.69

Req: Record: "P11N"
Resp: 2.41

Req: Record: "S2H"
Resp: 1.95

Req: Record: "D9F"
Resp: 3.37

Req: Record: "L3C"
Resp: 1.7

Req: Record: "D17C"
Resp: 2.45

Req: Record: "S7A"
Resp: 1.29

Req: Record: "P23Y"
Resp: 2.07

Req: Record: "L3Q"
Resp: 2.52

Req: Record: "T8M"
Resp: 2.27

Req: Record: "P23N"
Resp: 3.49

Req: Record: "H12M"
Resp: 2.12

Req: Record: "F19T"
Resp: 1.95

Req: Record: "M22I"
Resp: 2.04

Req: Record: "D17F"
Resp: 3.35

Req: Record: "P23V"
Resp: 2.19

Req: Record: "S7E"
Resp: 2.32

Req: Record: "P10Q"
Resp: 2.28

Req: Record: "T8A"
Resp: 4.04

Req: Record: "H12D"
Resp: 2.2

Req: Record: "E18V"
Resp: 2.14

Req: Record: "H13C"
Resp: 2.89

Req: Record: "D9S"
Resp: 3.56

Req: Record: "E18M"
Resp: 2.24

Req: Record: "D14F"
Resp: 1.83

Req: Record: "P11V"
Resp: 1.74

Req: Record: "P11A"
Resp: 2.67

Req: Record: "F19V"
Resp: 2.17

Req: Record: "D17E"
Resp: 2.59

Req: Record: "E18D"
Resp: 2.6

Req: Record: "D9M"
Resp: 2.04

Req: Record: "H12G"
Resp: 2.16

Req: Record: "H12A"
Resp: 1.65

Req: Record: "C20A"
Resp: 2.05

Req: Record: "P11K"
Resp: 2.58

Req: Record: "P23M"
Resp: 2.12

Req: Record: "C20L"
Resp: 3.49

Req: Record: "L21H"
Resp: 1.22

Req: Record: "M22L"
Resp: 1.91

Req: Record: "A5F"
Resp: 3.93

Req: Record: "F19M"
Resp: 2.6

Req: Record: "P11M"
Resp: 2.95

Req: Record: "P10V"
Resp: 2.25

Req: Record: "D17Q"
Resp: 2

Req: Record: "H15F"
Resp: 2.69

Req: Record: "A5I"
Resp: 2.96

Req: Record: "S7T"
Resp: 3.06

Req: Record: "P10E"
Resp: 2.47

Req: Record: "P23Q"
Resp: 2.84

Req: Record: "L3F"
Resp: 2.27

Req: Record: "P23A"
Resp: 2.23

Req: Record: "C20I"
Resp: 3.11

Req: Record: "V6L"
Resp: 3.23

Req: Record: "C20R"
Resp: 3.55

Req: Record: "H1C"
Resp: 2.48

Req: Record: "C20Y"
Resp: 2.92

Req: Record: "T8L"
Resp: 2.95

Req: Record: "H15T"
Resp: 1.86

Req: Record: "H15G"
Resp: 2.48

Req: Record: "P10T"
Resp: 2.11

Req: Record: "H1I"
Resp: 1.82

Req: Record: "T8R"
Resp: 3.01

Req: Record: "R4M"
Resp: 2

Req: Record: "P11G"
Resp: 2.46

Req: Record: "P10M"
Resp: 2.82

Req: Record: "T8S"
Resp: 2.85

Req: Record: "H16R"
Resp: 2.24

Req: Record: "R4F"
Resp: 2.22

Req: Record: "D14N"
Resp: 2.13

Req: Record: "L21I"
Resp: 1.68

Req: Record: "T8D"
Resp: 2.23

Req: Record: "P10H"
Resp: 2.57

Req: Record: "H12N"
Resp: 2.79
